meta.source: PubChem BioAssay AID1963446

test system: 993429-296-R-J1-PDC complex spheroid growth, percent test/control; assay: Anticancer human tumor 993429-296-R-J1-PDC patient-derived uterine sarcoma cell line growth inhibition [Asc]; details: second compound 0.0949 µM; first compound 0.316 µM; stronger effect = lower value
MEASURED ATTRIBUTE: viability, T/C (%)

* C#Cc1c(F)ccc2cc(O)cc(-c3ncc4c(N5CC6CCC(C5)N6)nc(OCC56CCCN5CC(F)C6)nc4c3F)c12 (configuration not stated) + CCN1C(C(=O)NC23CCC(C(=O)O)(CC2)CC3)C(c2cccc(Cl)c2F)C2(C(=O)Nc3cc(Cl)ccc32)C12CCCCC2 | 83.8
* CCN1CCN(Cc2ccc(Nc3ncc(F)c(-c4cc(F)c5nc(C)n(C(C)C)c5c4)n3)nc2)CC1 + CCN1C(C(=O)NC23CCC(C(=O)O)(CC2)CC3)C(c2cccc(Cl)c2F)C2(C(=O)Nc3cc(Cl)ccc32)C12CCCCC2 | 110

* * *

System: 993429-296-R-J1-PDC complex spheroid growth, percent test/control
Assay: Anticancer human tumor 993429-296-R-J1-PDC cell line growth inhibition [Asc];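 also: spheroids exposed to compounds for seven days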
Settings: curve of first compound; second compound 0.949 µM
Source text: Multicellular complex tumor spheroid response to apoptosis pathway targeting inhibitors Alrizomadlin, Pelcitoclax, and Dasminapant in combination with a variety of drugs and investigational agents in selected tumor cell lines […] Compounds. […] If the clinical Cmax for an agent had not been determined, the highest concentration tested was 10 microM. […]
Parameter: IC50. Scope: all listed entries.
MEASURED ATTRIBUTE: IC50 (µM)

• O=C(c1ccc(F)c(F)c1Nc1ccc(I)cc1F)N1CC(O)([C@@H]2CCCCN2)C1 + CCN1C(C(=O)NC23CCC(C(=O)O)(CC2)CC3)C(c2cccc(Cl)c2F)C2(C(=O)Nc3cc(Cl)ccc32)C12CCCCC2 = 0.0501
• C=C(F)C(=O)N1CCN(c2nc(OCC3CCCN3C)nc3c2CCN(c2cccc4cccc(Cl)c24)C3)CC1CC#N (configuration not stated) + CCN1C(C(=O)NC23CCC(C(=O)O)(CC2)CC3)C(c2cccc(Cl)c2F)C2(C(=O)Nc3cc(Cl)ccc32)C12CCCCC2 = 1.3
• NC(=O)C(=Cn1cnc(-c2cc(C(F)(F)F)cc(C(F)(F)F)c2)n1)c1cncnc1 + CCN1C(C(=O)NC23CCC(C(=O)O)(CC2)CC3)C(c2cccc(Cl)c2F)C2(C(=O)Nc3cc(Cl)ccc32)C12CCCCC2 = 0.0203
• C#Cc1c(F)ccc2cc(O)cc(-c3ncc4c(N5CC6CCC(C5)N6)nc(OCC56CCCN5CC(F)C6)nc4c3F)c12 (configuration not stated) + CCN1C(C(=O)NC23CCC(C(=O)O)(CC2)CC3)C(c2cccc(Cl)c2F)C2(C(=O)Nc3cc(Cl)ccc32)C12CCCCC2 = 5.32
• Cc1nc(N2CCC3(CC2)COC(C)C3N)c(CO)nc1Sc1ccnc(N)c1Cl (configuration not stated) + CCN1C(C(=O)NC23CCC(C(=O)O)(CC2)CC3)C(c2cccc(Cl)c2F)C2(C(=O)Nc3cc(Cl)ccc32)C12CCCCC2 = 0.144
• O=C(c1cc(Cc2n[nH]c(=O)c3ccccc23)ccc1F)N1CCN(C(=O)C2CC2)CC1 + CCN1C(C(=O)NC23CCC(C(=O)O)(CC2)CC3)C(c2cccc(Cl)c2F)C2(C(=O)Nc3cc(Cl)ccc32)C12CCCCC2 = 4.9
• COc1c(OCCCN2CCOCC2)ccc2c3n(c(=NC(=O)c4cnc(N)nc4)nc12)CCN3 + CCN1C(C(=O)NC23CCC(C(=O)O)(CC2)CC3)C(c2cccc(Cl)c2F)C2(C(=O)Nc3cc(Cl)ccc32)C12CCCCC2 = 0.0291

* * *

Parameter: viability, T/C. Scope: all listed entries.
test system: 993429-296-R-J1-PDC complex spheroid growth, percent test/control; experiment: Anticancer human tumor 993429-296-R-J1-PDC cell line growth inhibition [Asc]; conditions: second compound 1 µM; first compound 0.000316 µM; stronger effect = lower value;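 also: spheroids exposed to compounds for seven days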
MEASURED ATTRIBUTE: viability, T/C (%)

- Cn1ncnc1[C@H]1c2n[nH]c(=O)c3cc(F)cc(c23)N[C@@H]1c1ccc(F)cc1 + Cc1c(S(C)(=O)=O)c(-c2cc(F)cc(N3CCN(c4ccc(NS(=O)(=O)c5ccc(NC(CCN6CCC(C(=O)OCCCP(=O)(O)O)CC6)CSc6ccccc6)c(S(=O)(=O)C(F)(F)F)c5)cc4)CC3)c2)c(-c2ccc(Cl)cc2)n1C(C)C: 68.8
- NC1CCC(NC2CC2c2ccccc2)CC1 (centres undefined) + Cc1c(S(C)(=O)=O)c(-c2cc(F)cc(N3CCN(c4ccc(NS(=O)(=O)c5ccc(NC(CCN6CCC(C(=O)OCCCP(=O)(O)O)CC6)CSc6ccccc6)c(S(=O)(=O)C(F)(F)F)c5)cc4)CC3)c2)c(-c2ccc(Cl)cc2)n1C(C)C: 32.5
- NC1CCC(NC2CC2c2ccccc2)CC1 (centres undefined) + CNC(C)C(=O)NC1CN(S(=O)(=O)c2cccc(S(=O)(=O)N3CCC4CCC(C(=O)NC(c5ccccc5)c5ccccc5)N4C(=O)C(NC(=O)C(C)NC)C3)c2)CCC2CCC(C(=O)NC(c3ccccc3)c3ccccc3)N2C1=O: 45.9
- Cn1ncnc1[C@H]1c2n[nH]c(=O)c3cc(F)cc(c23)N[C@@H]1c1ccc(F)cc1 + CNC(C)C(=O)NC1CN(S(=O)(=O)c2cccc(S(=O)(=O)N3CCC4CCC(C(=O)NC(c5ccccc5)c5ccccc5)N4C(=O)C(NC(=O)C(C)NC)C3)c2)CCC2CCC(C(=O)NC(c3ccccc3)c3ccccc3)N2C1=O: 50.6

* * *

tested on: 993429-296-R-J1-PDC complex spheroid growth, percent test/control; assay: Anticancer human tumor 993429-296-R-J1-PDC cell line growth inhibition [Asc]; details: second compound 0.316 µM; first compound 0.00316 µM; stronger effect = lower value;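 also: spheroids exposed to compounds for seven days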
Parameter: viability, T/C. Scope: all listed entries.
MEASURED ATTRIBUTE: viability, T/C (%)

- CCN1CCN(Cc2ccc(Nc3ncc(F)c(-c4cc(F)c5nc(C)n(C(C)C)c5c4)n3)nc2)CC1 + Cc1c(S(C)(=O)=O)c(-c2cc(F)cc(N3CCN(c4ccc(NS(=O)(=O)c5ccc(NC(CCN6CCC(C(=O)OCCCP(=O)(O)O)CC6)CSc6ccccc6)c(S(=O)(=O)C(F)(F)F)c5)cc4)CC3)c2)c(-c2ccc(Cl)cc2)n1C(C)C: 54.2
- O=C(c1ccc(F)c(F)c1Nc1ccc(I)cc1F)N1CC(O)([C@@H]2CCCCN2)C1 + Cc1c(S(C)(=O)=O)c(-c2cc(F)cc(N3CCN(c4ccc(NS(=O)(=O)c5ccc(NC(CCN6CCC(C(=O)OCCCP(=O)(O)O)CC6)CSc6ccccc6)c(S(=O)(=O)C(F)(F)F)c5)cc4)CC3)c2)c(-c2ccc(Cl)cc2)n1C(C)C: 55.9
- COc1c(OCCCN2CCOCC2)ccc2c3n(c(=NC(=O)c4cnc(N)nc4)nc12)CCN3 + Cc1c(S(C)(=O)=O)c(-c2cc(F)cc(N3CCN(c4ccc(NS(=O)(=O)c5ccc(NC(CCN6CCC(C(=O)OCCCP(=O)(O)O)CC6)CSc6ccccc6)c(S(=O)(=O)C(F)(F)F)c5)cc4)CC3)c2)c(-c2ccc(Cl)cc2)n1C(C)C: 71.7
- CNC(C)C(=O)NC1CN(S(=O)(=O)c2cccc(S(=O)(=O)N3CCC4CCC(C(=O)NC(c5ccccc5)c5ccccc5)N4C(=O)C(NC(=O)C(C)NC)C3)c2)CCC2CCC(C(=O)NC(c3ccccc3)c3ccccc3)N2C1=O (centres undefined) + Cc1c(S(C)(=O)=O)c(-c2cc(F)cc(N3CCN(c4ccc(NS(=O)(=O)c5ccc(NC(CCN6CCC(C(=O)OCCCP(=O)(O)O)CC6)CSc6ccccc6)c(S(=O)(=O)C(F)(F)F)c5)cc4)CC3)c2)c(-c2ccc(Cl)cc2)n1C(C)C: 59.3

* * *

system: 993429-296-R-J1-PDC complex spheroid growth, percent test/control; test: Anticancer human tumor 993429-296-R-J1-PDC cell line growth inhibition [Asc]; details: curve of first compound; second compound 0.1 µM;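 also: spheroids exposed to compounds for seven days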
pIC50: −log10 of the molar value.
MEASURED ATTRIBUTE: pIC50

- O=C(c1cc(Cc2n[nH]c(=O)c3ccccc23)ccc1F)N1CCN(C(=O)C2CC2)CC1 + CNC(C)C(=O)NC1CN(S(=O)(=O)c2cccc(S(=O)(=O)N3CCC4CCC(C(=O)NC(c5ccccc5)c5ccccc5)N4C(=O)C(NC(=O)C(C)NC)C3)c2)CCC2CCC(C(=O)NC(c3ccccc3)c3ccccc3)N2C1=O: 5.95

* * *

System: 993429-296-R-J1-PDC complex spheroid growth, percent test/control
Experiment: Anticancer human tumor 993429-296-R-J1-PDC cell line growth inhibition [Asc];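 also: spheroids exposed to compounds for seven days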
Settings: second compound 0.0949 µM; first compound 0.00316 µM; stronger effect = lower value
Description: Multicellular complex tumor spheroid response to apoptosis pathway targeting inhibitors Alrizomadlin, Pelcitoclax, and Dasminapant in combination with a variety of drugs and investigational agents in selected tumor cell lines […] Compounds. […] If the clinical Cmax for an agent had not been determined, the highest concentration tested was 10 microM. […]
hey, just use True if measured viability, T/C is less than 80%, otherwise False

- COc1c(OCCCN2CCOCC2)ccc2c3n(c(=NC(=O)c4cnc(N)nc4)nc12)CCN3 + CCN1C(C(=O)NC23CCC(C(=O)O)(CC2)CC3)C(c2cccc(Cl)c2F)C2(C(=O)Nc3cc(Cl)ccc32)C12CCCCC2: False
- CNC(C)C(=O)NC1CN(S(=O)(=O)c2cccc(S(=O)(=O)N3CCC4CCC(C(=O)NC(c5ccccc5)c5ccccc5)N4C(=O)C(NC(=O)C(C)NC)C3)c2)CCC2CCC(C(=O)NC(c3ccccc3)c3ccccc3)N2C1=O (stereo unspecified) + CCN1C(C(=O)NC23CCC(C(=O)O)(CC2)CC3)C(c2cccc(Cl)c2F)C2(C(=O)Nc3cc(Cl)ccc32)C12CCCCC2: True
- CCN1CCN(Cc2ccc(Nc3ncc(F)c(-c4cc(F)c5nc(C)n(C(C)C)c5c4)n3)nc2)CC1 + CCN1C(C(=O)NC23CCC(C(=O)O)(CC2)CC3)C(c2cccc(Cl)c2F)C2(C(=O)Nc3cc(Cl)ccc32)C12CCCCC2: False
- Cn1ncnc1[C@H]1c2n[nH]c(=O)c3cc(F)cc(c23)N[C@@H]1c1ccc(F)cc1 + CCN1C(C(=O)NC23CCC(C(=O)O)(CC2)CC3)C(c2cccc(Cl)c2F)C2(C(=O)Nc3cc(Cl)ccc32)C12CCCCC2: False
- NC1CCC(NC2CC2c2ccccc2)CC1 (stereo unspecified) + CCN1C(C(=O)NC23CCC(C(=O)O)(CC2)CC3)C(c2cccc(Cl)c2F)C2(C(=O)Nc3cc(Cl)ccc32)C12CCCCC2: True
